- Target desc: Artificial Cell Surface (ACS): biotinylated cell surface proteins of PBMCs bound to streptavidin columns
- Procedure summary: trypsin-digested dHSA adsorbed on ACS column, MALDI-TOF ms
Reported Percent Absorbed values for a set of binders

{"Binder": "RPCFSALEVDETYVPK", "Unit abbrev": "%", "Percent Absorbed": 42}
{"Binder": "FQNALLVR [albumin fragment FQNALLVR]", "Unit abbrev": "%", "Percent Absorbed": 41}
{"Binder": "VPQVSTPTLVEVSR", "Unit abbrev": "%", "Percent Absorbed": 59}
{"Binder": "LDELRDEGK", "Unit abbrev": "%", "Percent Absorbed": 2}
{"Binder": "LKECCEKPLLEK", "Unit abbrev": "%", "Percent Absorbed": 36}
{"Binder": "SLHTLFGDK", "Unit abbrev": "%", "Percent Absorbed": 36}
{"Binder": "VHTECCHGDLLECADDR", "Unit abbrev": "%", "Percent Absorbed": 13}
{"Binder": "VFDEFKPLVEEPQNLIK", "Unit abbrev": "%", "Percent Absorbed": 60}
